- measurement.target: human Nav1.3 (Homo sapiens, UniProt Q9NY46)
- Sequence (Q9NY46 whole entry): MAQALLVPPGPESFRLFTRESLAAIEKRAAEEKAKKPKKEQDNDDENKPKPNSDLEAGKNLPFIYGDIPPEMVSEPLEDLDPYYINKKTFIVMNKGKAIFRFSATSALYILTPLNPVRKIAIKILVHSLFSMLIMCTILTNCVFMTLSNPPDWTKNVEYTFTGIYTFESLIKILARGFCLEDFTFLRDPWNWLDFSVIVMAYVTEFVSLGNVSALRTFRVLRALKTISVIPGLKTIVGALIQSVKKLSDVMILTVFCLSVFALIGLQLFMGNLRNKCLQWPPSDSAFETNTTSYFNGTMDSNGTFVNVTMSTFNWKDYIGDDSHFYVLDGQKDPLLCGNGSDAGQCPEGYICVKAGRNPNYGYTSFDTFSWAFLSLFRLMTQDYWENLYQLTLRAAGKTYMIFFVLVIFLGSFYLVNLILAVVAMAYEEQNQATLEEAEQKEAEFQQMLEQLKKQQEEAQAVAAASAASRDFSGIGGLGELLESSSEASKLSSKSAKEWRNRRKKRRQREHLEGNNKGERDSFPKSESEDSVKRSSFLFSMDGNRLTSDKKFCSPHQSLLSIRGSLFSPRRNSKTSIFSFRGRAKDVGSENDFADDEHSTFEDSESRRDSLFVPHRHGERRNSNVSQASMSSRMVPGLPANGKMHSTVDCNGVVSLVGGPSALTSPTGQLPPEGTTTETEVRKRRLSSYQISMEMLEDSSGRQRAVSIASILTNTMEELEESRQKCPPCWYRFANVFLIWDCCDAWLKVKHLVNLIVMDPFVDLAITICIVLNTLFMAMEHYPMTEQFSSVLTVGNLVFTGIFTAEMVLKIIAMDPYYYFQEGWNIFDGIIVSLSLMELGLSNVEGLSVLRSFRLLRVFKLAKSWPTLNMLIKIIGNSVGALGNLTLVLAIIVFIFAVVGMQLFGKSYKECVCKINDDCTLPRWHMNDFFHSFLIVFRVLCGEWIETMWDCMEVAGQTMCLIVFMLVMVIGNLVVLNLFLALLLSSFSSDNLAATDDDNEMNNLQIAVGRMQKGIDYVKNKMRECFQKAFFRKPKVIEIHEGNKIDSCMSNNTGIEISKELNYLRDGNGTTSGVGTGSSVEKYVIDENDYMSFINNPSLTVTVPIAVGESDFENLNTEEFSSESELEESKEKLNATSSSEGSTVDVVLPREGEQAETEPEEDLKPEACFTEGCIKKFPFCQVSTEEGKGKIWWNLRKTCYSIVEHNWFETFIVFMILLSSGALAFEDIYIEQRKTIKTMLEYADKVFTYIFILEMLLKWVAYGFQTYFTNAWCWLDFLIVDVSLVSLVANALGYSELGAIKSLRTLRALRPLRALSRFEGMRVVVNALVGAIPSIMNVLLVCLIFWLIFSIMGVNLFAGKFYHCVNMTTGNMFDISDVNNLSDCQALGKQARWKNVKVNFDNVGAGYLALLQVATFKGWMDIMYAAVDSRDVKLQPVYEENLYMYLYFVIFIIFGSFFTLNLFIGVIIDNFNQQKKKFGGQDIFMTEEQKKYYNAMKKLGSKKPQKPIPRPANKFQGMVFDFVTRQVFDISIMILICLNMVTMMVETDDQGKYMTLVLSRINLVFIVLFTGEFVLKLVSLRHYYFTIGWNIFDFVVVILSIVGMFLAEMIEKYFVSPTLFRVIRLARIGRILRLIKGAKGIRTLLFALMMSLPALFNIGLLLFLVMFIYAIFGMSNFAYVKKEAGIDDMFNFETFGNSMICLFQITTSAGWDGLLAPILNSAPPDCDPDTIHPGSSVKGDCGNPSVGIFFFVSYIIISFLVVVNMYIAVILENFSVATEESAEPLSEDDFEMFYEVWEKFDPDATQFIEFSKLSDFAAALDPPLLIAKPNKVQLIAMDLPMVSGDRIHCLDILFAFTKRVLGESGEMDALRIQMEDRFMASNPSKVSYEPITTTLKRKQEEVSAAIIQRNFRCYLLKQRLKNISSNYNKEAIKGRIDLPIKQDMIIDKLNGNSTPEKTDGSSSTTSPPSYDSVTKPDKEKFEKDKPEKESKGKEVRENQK
- experiment: FRET assay, human Nav1.3 channels expressed in HEK293 cells
- condition.description: HEK293 cells expressing human NaV1.3, veratridine-opened channels
observed.property: IC50

Examples with their reported IC50 follow.
O=C(NCC1(O)CCCCC1)c1ncccc1OC[C@H]1CCCN1C(=O)[C@H]1CC[C@H](C(F)(F)F)CC1	≤ 500 nM
NC(=O)c1ncc(Cl)cc1OC[C@H]1CCCN1C(=O)[C@H]1CC[C@@H](C(F)(F)F)CC1	≤ 500 nM
NC(=O)c1ncccc1OC[C@@H]1CCCN1C(=O)[C@H]1CC[C@@H](C(F)(F)F)CC1	≤ 500 nM
NC(=O)c1ncccc1OC[C@H]1CCCN1C(=O)c1ccc(C(F)(F)F)cc1	≤ 500 nM
O=C(NCc1ccccn1)c1ncccc1OC[C@H]1CCCN1C(=O)[C@H]1CC[C@H](C(F)(F)F)CC1	≤ 500 nM
O=C(Nc1ncco1)c1ncccc1OC[C@@H]1CCCN1C(=O)[C@H]1CC[C@@H](C(F)(F)F)CC1	≤ 500 nM

Record IC50 per entry; entries follow.
1. O=C(NC1CCOCC1)c1ncccc1OC[C@H]1CCCN1C(=O)[C@H]1CC[C@H](C(F)(F)F)CC1
2. NC(=O)c1ncc(Cl)cc1OC[C@H]1CCCN1C(=O)[C@H]1CC[C@H](C(F)(F)F)CC1
3. NC(=O)c1ncccc1OC[C@H]1CCCN1C(=O)COc1ccc(C(F)(F)F)cc1
4. O=C(Nc1ccon1)c1ncccc1OC[C@H]1CCCN1C(=O)c1cc(C2CC2)on1
5. O=C(Nc1ccon1)c1ncccc1OC[C@H]1CCCN1C(=O)[C@H]1CC[C@H](C(F)(F)F)CC1
6. O=C(Nc1ncco1)c1ncccc1OC[C@H]1CCCN1C(=O)[C@H]1CC[C@@H](C(F)(F)F)CC1
7. COc1cnc(C(N)=O)c(OC[C@H]2CCCN2C(=O)[C@H]2CC[C@H](C(F)(F)F)CC2)c1

1: ≤ 500 nM; 2: ≤ 500 nM; 3: ≤ 500 nM; 4: ≤ 500 nM; 5: ≤ 500 nM; 6: ≤ 500 nM; 7: ≤ 500 nM

Below are 3 compounds. Give each one its IC50.
1. O=C(Nc1ccon1)c1ncccc1OC[C@H]1CCCN1C(=O)CC1CCC(F)(F)CC1
2. O=C(NCc1ccccc1)c1ncccc1OC[C@H]1CCCN1C(=O)[C@H]1CC[C@H](C(F)(F)F)CC1
3. NC(=O)c1ncccc1OC[C@H]1CCCN1C(=O)c1ccc(OCC(F)(F)F)cc1

≤ 500 nM
≤ 500 nM
≤ 500 nM

====

- measurement.target: human Nav1.3 (Homo sapiens)
- Construct: expressed in transfected cells; host or cells: HEK293
- experiment: FRET assay, human Nav1.3 channels expressed in HEK293 cells
- Type: cell-based
- condition.description: HEK293 cells expressing human NaV1.3, veratridine-opened channels
pIC50: −log10 of the molar value.
observed.property: pIC50

O=C(N[C@H](CO)c1ccccc1)c1ncccc1OC[C@H]1CCCN1C(=O)[C@H]1CC[C@H](C(F)(F)F)CC1	≥ 6.30
O=C(Nc1ncns1)c1ncccc1OC[C@H]1CCCN1C(=O)[C@H]1CC[C@H](C(F)(F)F)CC1	≥ 6.30

# input for lookup
// returns reported pIC50 for input "NC(=O)c1ncccc1OC[C@H]1CCCN1C(=O)c1ccc(OC(F)(F)F)cc1"
≥ 6.30
